Assay: Solubility (Test F)
Type: physicochemical
Settings: arithmetic mean if run multiple times
Readout Type: solubility (µM)

The following compounds have reported results that may help.
>  <Compound>
COc1cc(F)c(O[C@H]2CC[C@@](C)(C(=O)O)CC2)cc1C(=O)N[C@@H]1[C@H]2CC[C@H](C2)[C@@H]1C(=O)NCC1(C)CCCCC1

>  <Reported>
300

$$$$
>  <Compound>
COc1cc(C#N)c(O[C@H]2CC[C@@](C)(C(=O)O)CC2)cc1C(=O)N[C@@H]1[C@H]2CC[C@H](C2)[C@@H]1C(=O)NCC1(C)CCCCCC1

>  <Reported>
220

$$$$
>  <Compound>
COc1cc(F)c(-c2ccc(C(=O)O)cc2)cc1C(=O)N[C@@H]1[C@H]2CC[C@H](C2)[C@@H]1C(=O)Nc1ccc(S(F)(F)(F)(F)F)cc1

>  <Reported>
67

$$$$
>  <Compound>
COc1cc(C#N)c(O[C@H]2C[C@]3(C2)C[C@H](C(=O)O)C3)cc1C(=O)N[C@@H]1[C@H]2CC[C@H](C2)[C@@H]1C(=O)NCC1(C)CCC1 (single isomer, unassigned)

>  <Reported>
820

$$$$
>  <Compound>
COc1cc(C(F)F)c(O[C@H]2CC[C@@](C)(C(=O)O)CC2)cc1C(=O)N[C@@H]1[C@H]2CC[C@H](C2)[C@@H]1C(=O)NCC1(C)CCC1

>  <Reported>
1000

$$$$

I = COc1cc(C#N)c(O[C@H]2CC[C@@](C)(C(=O)O)CC2)cc1C(=O)N[C@@H]1[C@@H]2CC[C@@H](C2)[C@@H]1C(=O)NCC(C)(C)C
II = COc1cc(F)c(O[C@H]2CC[C@@H](C(=O)O)CC2)cc1C(=O)N[C@@H]1[C@H]2CC[C@H](C2)[C@@H]1C(=O)Nc1cccc(I)c1
III = COc1cc(F)c(O[C@H]2CC[C@@](C)(C(=O)O)CC2)cc1C(=O)Nc1ccc(C)cc1C(=O)NCC1(C)CCC1
Problem: Could you please sort these 3 entries by solubility from high to low? Sort the labels as requested; that list is your answer.
Result: I, II, III

A = COc1cc(F)c(O[C@H]2CC[C@@H](C(=O)O)CC2)cc1C(=O)N[C@@H]1[C@H]2CC[C@H](C2)[C@@H]1C(=O)Nc1cccc(S(F)(F)(F)(F)F)c1
B = COc1cc(C#N)c(O[C@H]2CC[C@@](C)(C(=O)O)CC2)cc1C(=O)N[C@@H]1[C@H]2CC[C@H](C2)[C@@H]1C(=O)N[C@]12CC3CC(C[C@@](O)(C3)C1)C2
Problem: Which record shows the lower solubility: the first, A , or the second, B ? Pick one; state its label.
Result: A
(A: 200 µM, B: 950 µM)

* * *

Experiment: Solubility (Test F)
Type: physicochemical
Conditions: arithmetic mean if run multiple times
Readout Type: solubility (µM)

>  <Smiles Str>
COc1cc(F)c(O[C@H]2CC[C@@](C)(C(=O)O)CC2)cc1C(=O)N[C@@H]1CCC[C@@H]1C(=O)NCC(C)(C)C#N

>  <Readout Type>
solubility

>  <Unit Tag>
µM

>  <Reported>
970

$$$$
>  <Smiles Str>
COc1cc(F)c(-c2ccc(C(=O)O)c(O)c2)cc1C(=O)N[C@@H]1[C@H]2CC[C@H](C2)[C@@H]1C(=O)Nc1cccc(S(=O)(=O)C(F)(F)F)c1

>  <Readout Type>
solubility

>  <Unit Tag>
µM

>  <Reported>
190

$$$$
>  <Smiles Str>
COc1cc(F)c(O[C@H]2CC[C@@H](C(=O)O)CC2)cc1C(=O)N[C@@H]1[C@H]2CC[C@H](C2)[C@@H]1C(=O)Nc1ccc(C)c(C#N)c1

>  <Readout Type>
solubility

>  <Unit Tag>
µM

>  <Reported>
630

$$$$
>  <Smiles Str>
COc1cc(F)c(O[C@H]2CC[C@@](C)(C(=O)O)CC2)cc1C(=O)N[C@H]1[C@@H](C(=O)NCC2(C)CCC2)[C@@H]2C=C[C@H]1C2

>  <Readout Type>
solubility

>  <Unit Tag>
µM

>  <Reported>
900

$$$$
>  <Smiles Str>
COc1cc(C#N)c(O[C@H]2CC[C@@](C)(C(=O)O)CC2)cc1C(=O)N[C@@H]1[C@H]2CC[C@H](C2)[C@@H]1C(=O)NCC1(F)CCC1

>  <Readout Type>
solubility

>  <Unit Tag>
µM

>  <Reported>
830

$$$$

1 = COc1cc(F)c(-c2ccc(C(=O)O)cc2)cc1C(=O)N[C@@H]1[C@H]2CC[C@H](C2)[C@@H]1C(=O)Nc1cccc(S(F)(F)(F)(F)F)c1
2 = COc1c(Cl)cc(O[C@H]2CC[C@@](C)(C(=O)O)CC2)cc1C(=O)N[C@@H]1[C@H]2CC[C@H](C2)[C@@H]1C(=O)NCC1(C)CCC1
Problem: From the items above, decide which of 1 and 2 has the lower solubility reading. When you have decided, please share the label of that item.
Result: 1

I = COc1cc(F)c(O[C@H]2CC[C@@H](C(=O)O)CC2)cc1C(=O)N[C@@H]1[C@H]2CC[C@H](C2)[C@@H]1C(=O)Nc1cc(F)cc(S(F)(F)(F)(F)F)c1
II = COc1cc(C#N)c(O[C@H]2CC[C@@](C)(C(=O)O)CC2)cc1C(=O)N[C@@H]1[C@H]2CC[C@H](C2)[C@@H]1C(=O)NCC1(OC)CCC1
III = CC1(CNC(=O)[C@H]2[C@@H]3CC[C@@H](C3)[C@H]2NC(=O)c2cc(O[C@H]3CC[C@@](C)(C(=O)O)CC3)c(F)cc2OC(F)F)CCC1
Problem: Rank ascending by solubility. Labels, ranked as asked.
Result: I, III, II

* * *

Biological target: UniProtKB Q9HBX9
Sequence (Q9HBX9 1-757): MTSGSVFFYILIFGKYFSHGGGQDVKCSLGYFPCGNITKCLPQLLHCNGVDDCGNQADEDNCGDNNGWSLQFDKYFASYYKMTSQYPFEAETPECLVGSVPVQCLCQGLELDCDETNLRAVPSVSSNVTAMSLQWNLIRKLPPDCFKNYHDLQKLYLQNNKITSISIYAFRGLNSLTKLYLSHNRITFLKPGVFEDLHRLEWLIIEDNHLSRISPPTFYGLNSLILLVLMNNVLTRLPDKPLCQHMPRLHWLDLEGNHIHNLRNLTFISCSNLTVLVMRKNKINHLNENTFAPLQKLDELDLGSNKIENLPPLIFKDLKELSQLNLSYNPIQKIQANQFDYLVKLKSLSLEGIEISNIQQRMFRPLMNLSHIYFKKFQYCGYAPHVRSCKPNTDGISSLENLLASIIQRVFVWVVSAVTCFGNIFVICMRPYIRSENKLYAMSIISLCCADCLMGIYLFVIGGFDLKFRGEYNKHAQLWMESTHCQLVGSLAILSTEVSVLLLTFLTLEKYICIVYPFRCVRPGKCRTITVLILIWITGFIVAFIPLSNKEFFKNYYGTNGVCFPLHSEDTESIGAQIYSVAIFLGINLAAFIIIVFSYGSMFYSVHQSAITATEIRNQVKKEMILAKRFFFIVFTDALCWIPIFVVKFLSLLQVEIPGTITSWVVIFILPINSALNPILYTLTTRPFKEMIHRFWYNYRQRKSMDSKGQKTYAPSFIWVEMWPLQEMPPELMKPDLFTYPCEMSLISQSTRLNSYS
Assay: RXFP1 Hu cAMP (Test A)
Assay type: cell-based
Design: expressed in transfected cells; host or cells: Jump-In T-REx CHO-K1 cells (ThermoFisher), induced with 10 ng/ml doxycycline for 24 h
Settings: RXFP1 Hu cAMP; read-out: Test A EC50
pEC50: −log10 of the molar value.
Readout Type: pEC50

>  <Compound>
COc1cc(F)c(O[C@H]2CC[C@@H](C(=O)O)CC2)cc1C(=O)N[C@H]1[C@@H](C(=O)Nc2ccc(OC)c(S(=O)(=O)C(F)(F)F)c2)[C@@H]2C=C[C@H]1C2

>  <pEC50>
6.49

$$$$

A = COc1cc(F)c(O[C@H]2CC[C@@](C)(C(=O)O)CC2)cc1C(=O)N[C@@H]1[C@@H]2CC[C@@H](C2)[C@@H]1C(=O)Nc1ccc(F)c(S(F)(F)(F)(F)F)c1 (racemic)
B = COc1cc(F)c(O[C@H]2CC[C@@](CO)(C(=O)O)CC2)cc1C(=O)NC1CC(OC)CC1C(=O)NCC(C)(C)C (single isomer, unassigned)
C = COc1cc(F)c(O[C@H]2CC[C@@](O)(C(=O)O)CC2)cc1C(=O)N[C@@H]1[C@@H]2CC[C@@H](C2)[C@@H]1C(=O)Nc1cccc(S(=O)(=O)C(F)(F)F)c1 (racemic)
D = COc1cc(C#N)c(O[C@H]2CC[C@@](C)(C(=O)O)CC2)cc1C(=O)N[C@@H]1[C@H]2CC[C@H](C2)[C@@H]1C(=O)NCC(F)(F)C(F)(F)F
E = COc1cc(F)c(O[C@H]2CC[C@@H](C(=O)O)CC2)cc1C(=O)N[C@@H]1[C@H]2CC[C@H](C2)[C@@H]1C(=O)Nc1cccc(C2CC2)c1
Problem: // smallest pEC50 at index 0, largest at the end Put the labels in the requested order and list them out.
Result: B, E, D, C, A
